Below is a list of entries, each paired with its recorded CC50 at 72 h value.
Assay Summary: Cytotoxicity against bovine MDBK cells assessed as reduction in cell viability after 3 days by MTS/PES assay
Format: cell-based, Bos taurus
Reported Conditions: cattle

Study these solved cases before continuing.
COc1ccc(NC(=S)N/N=C2\CCc3ccccc32)cc1
> 10 µM
COc1cc2c(cc1OC)/C(=N/NC(N)=S)CC2
> 80 µM
S=C(N/N=C1\CCc2ccccc21)Nc1ccc(Cl)cc1
> 20 µM

(Q) Specify measured CC50 at 72 h for O=[N+]([O-])c1ccc(NC(=S)N/N=C2\CCc3ccccc32)cc1 .
(A) > 10 µM

(Q) Specify measured CC50 at 72 h for Cc1ccc(NC(=S)N/N=C2\CCc3ccccc32)cc1 .
(A) > 20 µM

(Q) Specify measured CC50 at 72 h for COc1cc2c(cc1OC)/C(=N/NC(=S)Nc1ccccc1)CC2 .
(A) > 10 µM

====

Assay Summary: Cytotoxicity against bovine MDBK cells assessed as reduction in cell viability after 3 days by MTS/PES assay
Assay type: cell-based, Bos taurus
Reported Conditions: cattle
Measurement Kind: CC50 at 72 h

S=C(N/N=C1\CCc2ccccc21)Nc1ccccc1
> 10 µM
COc1ccc(NC(=S)N/N=C2\CCc3cc(OC)c(OC)cc32)cc1
> 20 µM
COc1cc2c(cc1OC)/C(=N/NC(=S)Nc1ccc(F)cc1)CC2
> 20 µM
COc1cc2c(cc1OC)/C(=N/NC(=S)Nc1ccc(C)cc1)CC2
> 20 µM
COc1cc2c(cc1OC)/C(=N/NC(=S)Nc1ccc(Cl)cc1)CC2
> 10 µM

Then this molecule:
(Q) Specify measured CC50 at 72 h for Fc1ccc(NC(=S)N/N=C2\CCc3ccccc32)cc1 .
(A) > 20 µM

====

Assay Summary: Cytotoxicity against bovine MDBK cells assessed as reduction in cell viability after 3 days by MTS/PES assay
Format: cell-based, Bos taurus
Reported Conditions: cattle
Measurement Kind: CC50 at 72 h (µM)
Write it as a number; the unit µM goes unstated.

NC(=S)N/N=C1\CCc2cc(F)ccc21
41.9

Then this molecule:
(Q) Specify measured CC50 at 72 h for NC(=S)N/N=C1\CCc2c1cccc2[N+](=O)[O-] .
(A) 84.6

====

Below is a list of entries, each paired with its recorded CC50 at 72 h value.
Assay Summary: Cytotoxicity against bovine MDBK cells assessed as reduction in cell viability after 3 days by MTS/PES assay
Assay type: cell-based, Bos taurus
Reported Conditions: cattle

Study these solved cases before continuing.
COc1cc2c(cc1OC)/C(=N/NC(=S)Nc1ccc([N+](=O)[O-])cc1)CC2
> 10 µM
Cc1cc(Br)c(C)c2c1/C(=N/NC(N)=S)CC2
> 100 µM

Then this compound:
(Q) Specify measured CC50 at 72 h for NC(=S)N/N=C1\CCc2ccc([N+](=O)[O-])cc21 .
(A) > 25 µM

Ref: ChEMBL document CHEMBL4052663
